Measured Kd by item
- System name: T1, human Ly6G6D polypeptide (UniProt O95868 20-104)
- T1 chain: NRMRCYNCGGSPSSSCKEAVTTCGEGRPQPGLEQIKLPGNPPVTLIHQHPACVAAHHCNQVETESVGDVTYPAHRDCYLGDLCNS
- Test protocol: BIAcore
Field: numeric (nM). Do not append units.

INPUT: Item hu6E10.K1-5.V3-53 (L1H1) (antibody, V domains shown) VH: EQQLVESGGGLIQPGGSLRLSCAVSGLSLSTNSINWVRQAPGKGLEWIGYIYHGDGIADYASWAKGRFTISKDSSKNTVYLQMNSLRAEDTAVYFCASGAGYSLFTLWGPGTLVTVSS VL: DAQLTQSPSTLSASVGDRVTITCQSSESVWHNNWLAWFQQKPGKRPKLLIYGASTLASGVPSRFSGSGSGTEFTLTISSLQPDDFATYYCAGGYSSSDAHVFGGGTKVEIK has what recorded Kd?
OUTPUT: 1.63

INPUT: I have this binder here, hu6E10.K3-20.V3-53 (L1H1) (antibody, V domains shown) VH: EQQLVESGGGLIQPGGSLRLSCAVSGLSLSTNSINWVRQAPGKGLEWIGYIYHGDGIADYASWAKGRFTISKDSSKNTVYLQMNSLRAEDTAVYFCASGAGYSLFTLWGPGTLVTVSS VL: EAVLTQSPGTLSLSPGERATLSCQSSESVWHNNWLAWFQQKPGQRPRLLIYGASTLASGVPDRFSGSGSGTDFTLTISRLEPEDFAVYYCAGGYSSSDAHVFGGGTKVEIK , and I need its recorded Kd.
OUTPUT: 1.3

INPUT: If you can, please state the reported Kd value of hu6E10.K4-1.V4-4 (antibody, V domains shown) VH: EQQLQESGPGLVKPPGTLSLTCAVSGLSLSTNSINWVRQPPGKGLEWIGYIYHGDGIADYASWAKGRFTISKDSSKTQVSLKLSSVTAADTAVYFCASGAGYSLFTLWGPGTLVTVSS VL: DAVLTQSPDSLAVSLGERATINCQSSESVWHNNWLAWFQQKPGQRPKLLIYGASTLASGVPDRFSGSGSGTDFTLTISSLQAEDVAVYYCAGGYSSSDAHVFGGGTKVEIK .
OUTPUT: 3.6
